Tested on: Vero cells
measurement_notes: Propidium iodide (PI) staining cytotoxicity in Vero cells by flow cytometry
Format: cell-based
protocol_conditions: 24 h, concentration giving 10% PI+ cells
Reported PI MTC by item:
Kindly answer with a numeric value in µM, unit omitted.

Prompt line: Field request: PI MTC | item: COc1ccc(Br)cc1/C=C/C(=O)c1c(O)cccc1OCc1ccccc1
Response line: 4.0

Prompt line: Next compound: COc1ccc(Br)cc1/C=C/C(=O)c1c(O)cccc1OC
Response line: 6.8

Prompt line: Next compound: CCOc1ccc(Cl)cc1/C=C/C(=O)c1c(O)cccc1OCc1ccccc1
Response line: 3.2

Prompt line: Next compound: CCOc1ccc(Br)cc1/C=C/C(=O)c1c(O)cccc1OCc1ccccc1
Response line: 2.5
